Data provenance is ChEMBL document CHEMBL1151764.

The molecules listed here are annotated with their IC50.
Tested system: Cyclin-dependent kinase 4/cyclin D1 (Homo sapiens, UniProt P11802)
Sequence (P11802 whole entry): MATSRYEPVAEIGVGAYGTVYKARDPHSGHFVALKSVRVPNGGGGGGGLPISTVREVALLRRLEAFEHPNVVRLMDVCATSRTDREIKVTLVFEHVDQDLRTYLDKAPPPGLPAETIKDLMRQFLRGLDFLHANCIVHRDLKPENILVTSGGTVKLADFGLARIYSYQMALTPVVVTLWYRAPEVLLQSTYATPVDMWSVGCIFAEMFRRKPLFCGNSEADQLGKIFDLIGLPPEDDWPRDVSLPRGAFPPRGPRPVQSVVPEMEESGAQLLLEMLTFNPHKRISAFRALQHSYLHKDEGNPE
Sequence (P24385 whole entry, further chain): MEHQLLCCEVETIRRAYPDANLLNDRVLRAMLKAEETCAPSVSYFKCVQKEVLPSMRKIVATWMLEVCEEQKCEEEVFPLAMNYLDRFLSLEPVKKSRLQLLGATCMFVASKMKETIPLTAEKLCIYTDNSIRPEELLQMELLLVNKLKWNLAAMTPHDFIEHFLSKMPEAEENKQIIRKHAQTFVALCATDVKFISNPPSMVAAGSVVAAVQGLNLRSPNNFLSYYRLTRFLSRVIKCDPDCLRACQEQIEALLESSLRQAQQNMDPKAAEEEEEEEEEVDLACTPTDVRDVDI
Measurement protocol: Inhibition of human CDK4/CycD1

| Molecule | IC50 (µM) |
| --- | --- |
| CNC(=N)SCCCn1c(=O)c2c(c1=O)n1c3ccccc3cc1c1cccc3ccn2c31 | 6.2 |
| C=CCNC(=N)SCCCN1C(=O)C2=C(C1=O)n1ccc3cccc(c31)C1Cc3ccccc3N21 (stereo not given) | 6.9 |
| N=C(N)SCCCn1c(=O)c2c(c1=O)n1c3ccccc3cc1c1cccc3ccn2c31 | 2.7 |
| N=C(Nc1ccccc1)SCCCN1C(=O)C2=C(C1=O)n1ccc3cccc(c31)C1Cc3ccccc3N21 (stereo not given) | 7.9 |
| CNC(=N)SCCCN1C(=O)C2=C(C1=O)n1ccc3cccc(c31)C1Cc3ccccc3N21 (stereo not given) | 5.7 |
